- MEASURED TARGET: Type-1 angiotensin II receptor (Bos taurus, UniProt P25104)
- Sequence (P25104 whole entry): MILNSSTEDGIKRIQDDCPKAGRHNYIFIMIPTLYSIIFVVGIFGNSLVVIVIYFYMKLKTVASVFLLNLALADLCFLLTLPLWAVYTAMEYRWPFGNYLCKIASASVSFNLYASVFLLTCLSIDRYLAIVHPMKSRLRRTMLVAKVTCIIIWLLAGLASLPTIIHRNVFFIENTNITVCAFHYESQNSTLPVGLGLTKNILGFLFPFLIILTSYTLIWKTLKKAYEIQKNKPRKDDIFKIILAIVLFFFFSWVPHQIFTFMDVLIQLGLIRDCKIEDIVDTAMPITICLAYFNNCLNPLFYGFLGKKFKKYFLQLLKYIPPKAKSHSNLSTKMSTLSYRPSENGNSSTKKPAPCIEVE
- ASSAY DETAILS: In vitro binding affinity to angiotensin II receptor in bovine adrenal cortex
- Format: tissue-based
QUANTITY KIND: pIC50
Answers are plain numbers, as −log10 of the molar value.

// worked examples, pIC50 included
1) CCCCc1nc2ccc([C@@H]3C[C@H]4C5CCC(C)(C)N5O[C@H]4O3)cc2c(=O)n1Cc1ccc(-c2ccccc2-c2nn[nH]n2)cc1 (some centres not stated) | 7.49
2) CCCCc1nc2ccc([C@H]3[C@@H]4C(=O)CC[C@@H]4ON3C)cc2c(=O)n1Cc1ccc(-c2ccccc2-c2nnn[nH]2)cc1 | 7.01
3) CCCCc1nc2ccc([C@@H]3[C@H]4CCCN3OC4)cc2c(=O)n1Cc1ccc(-c2ccccc2-c2nnn[nH]2)cc1 | 7.80
4) CCCCc1nc2ccc(C3=NN[C@H]4C(=O)N(C)C(=O)[C@@H]34)cc2c(=O)n1Cc1ccc(-c2ccccc2-c2nn[nH]n2)cc1 | 6.96
5) CCCCc1nc2ccc([C@H]3[C@@H]4CCC[C@@H]4ON3C)cc2c(=O)n1Cc1ccc(-c2ccccc2-c2nnn[nH]2)cc1 | 7.01

// for each compound below, give its pIC50
1. CCCCc1nc2ccc([C@@H]3C[C@H](CO)ON3C)cc2c(=O)n1Cc1ccc(-c2ccccc2-c2nn[nH]n2)cc1
2. CCCCc1nc2ccc([C@@H]3[C@@H]4C(=O)CC[C@@H]4ON3C)cc2c(=O)n1Cc1ccc(-c2ccccc2-c2nn[nH]n2)cc1

1: 7.21; 2: 7.38
